Recorded melting point values for a group of molecules are listed next.
Express it in °C; write the number only.

- molecule: "CC(C)c1ccc(O)cc1"
  u: "°C"
  numericResult: 60
- molecule: "CCN(CC)c1ccc(C=NO)cc1"
  u: "°C"
  numericResult: 96
- molecule: "Nc1ccc(NC(=O)c2ccc(N)cc2)cc1 [4,4'-diaminobenzanilide]"
  u: "°C"
  numericResult: 201
- molecule: "Cc1cc2[nH]c(C)cc(=O)n2n1 [2,5-dimethylpyrazolo[1,5-a]pyrimidin-7(4h)-one]"
  u: "°C"
  numericResult: 253
- molecule: "COc1ccc(C=O)cc1"
  u: "°C"
  numericResult: 1

Prompt: For the molecule C1CNCCN1 [piperazine, anhydrous] , what melting point is on record?
Completion: 110

Prompt: And COc1ccc(OC)c(S(=O)(=O)Cl)c1 [2,5-dimethoxybenzenesulfonyl chloride] ?
Completion: 114

Prompt: And N#CN [cyanamide] ?
Completion: 45
